experimental system: Mutant:Nb-9065 (Escherichia coli, UniProt P02920, G262W/G46W)
Sequence (P02920 whole entry G46W/G262W): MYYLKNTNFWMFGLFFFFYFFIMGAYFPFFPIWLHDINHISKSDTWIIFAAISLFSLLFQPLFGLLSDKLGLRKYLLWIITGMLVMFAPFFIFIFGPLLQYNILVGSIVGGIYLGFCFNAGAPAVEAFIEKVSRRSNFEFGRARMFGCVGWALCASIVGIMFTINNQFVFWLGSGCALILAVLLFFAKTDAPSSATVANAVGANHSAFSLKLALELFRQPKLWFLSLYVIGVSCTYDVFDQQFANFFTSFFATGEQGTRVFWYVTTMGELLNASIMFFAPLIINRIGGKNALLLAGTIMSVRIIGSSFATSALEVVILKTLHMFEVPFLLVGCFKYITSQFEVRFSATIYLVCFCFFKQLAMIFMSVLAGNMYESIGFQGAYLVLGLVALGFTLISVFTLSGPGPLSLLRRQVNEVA
experiment summary: ITC, α-NPG binding to double-Trp mutant:Nb-9065 complex
protocol conditions: ITC at 25 °C; mutant pre-incubated with Nb-9065
measured parameter: Kd (µM)
Output spec: scalar in µM, unitless text.

Req: Kindly state the measured Kd obtained for O=[N+]([O-])c1ccc(O[C@H]2O[C@H](CO)[C@H](O)[C@H](O)[C@H]2O)cc1 [α-NPG, p-nitrophenyl-α-D-galactopyranoside] with Mutant:Nb-9065 (Escherichia coli, UniProt P02920, G262W/G46W).
Resp: 7.1

====

experimental system: WT:Nb-9065 (Escherichia coli)
Sequence (P02920 whole entry): as the sequence (P02920 whole entry G46W/G262W) above, with W46G, W262G counted along it
experiment summary: ITC, α-NPG binding to WT LacY:Nb-9065 complex
protocol conditions: ITC at 25 °C; WT pre-incubated with Nb-9065
measured parameter: Kd (µM)
Output spec: scalar in µM, unitless text.

Req: Kindly state the measured Kd obtained for O=[N+]([O-])c1ccc(O[C@H]2O[C@H](CO)[C@H](O)[C@H](O)[C@H]2O)cc1 [α-NPG, p-nitrophenyl-α-D-galactopyranoside] with WT:Nb-9065 (Escherichia coli).
Resp: 5.7

====

experimental system: Double-Trp mutant (G46W/G262W LacY) (Escherichia coli, UniProt P02920, G262W/G46W)
Sequence (P02920 whole entry G46W/G262W): as the sequence (P02920 whole entry G46W/G262W) above
experiment summary: ITC, α-NPG binding to double-Trp mutant LacY
protocol conditions: ITC at 25 °C; no Nb
measured parameter: Kd
In your response, put the unit directly after the numeric value.

Req: I would be grateful if you could share the reported Kd for O=[N+]([O-])c1ccc(O[C@H]2O[C@H](CO)[C@H](O)[C@H](O)[C@H]2O)cc1 [α-NPG, p-nitrophenyl-α-D-galactopyranoside] .
Resp: 5 µM
